Just for reference, paper PMC12155096 is where these values come from.

Biological target: human CYP2D6 (Homo sapiens, UniProt P10635)
Sequence (P10635 whole entry): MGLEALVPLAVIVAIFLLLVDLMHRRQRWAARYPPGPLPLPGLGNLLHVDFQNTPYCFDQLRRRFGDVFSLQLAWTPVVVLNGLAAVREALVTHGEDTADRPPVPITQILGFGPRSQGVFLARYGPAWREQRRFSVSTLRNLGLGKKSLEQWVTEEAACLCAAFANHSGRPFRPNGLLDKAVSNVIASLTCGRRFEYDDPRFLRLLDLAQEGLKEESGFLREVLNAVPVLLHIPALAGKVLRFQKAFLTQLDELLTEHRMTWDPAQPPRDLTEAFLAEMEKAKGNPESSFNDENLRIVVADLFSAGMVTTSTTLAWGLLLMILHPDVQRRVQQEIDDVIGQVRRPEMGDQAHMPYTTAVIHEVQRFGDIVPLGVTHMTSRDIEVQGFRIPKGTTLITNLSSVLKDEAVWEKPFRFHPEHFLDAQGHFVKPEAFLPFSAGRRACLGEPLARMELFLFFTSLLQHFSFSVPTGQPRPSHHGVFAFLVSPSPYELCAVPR
Assay: biochemical
Conditions: CYP2D6 AC50 (half-maximal activity concentration)
Counter-ions that a name gives are not always drawn.
Decision: AC50 beneath 1 µM gives Yes; AC50 meeting or exceeding 1 µM gives No.

Strictly below 1 µM: is that where AC50 of `COP(=O)(OC)OC(=CCl)c1cc(Cl)c(Cl)cc1Cl` sits?
No

In plain terms, does `CCOP(=O)(Sc1ccccc1)Sc1ccccc1` come in under 1 µM for AC50?
No

---
AC50 under 1 µM? Item: CC(CCc1ccccc1)NC(C)C(O)c1ccc(O)cc1 (stereo not shown)
Yes

Is AC50 of `CN1CCC(N(Cc2cccs2)c2ccccc2)CC1` strictly below 1 µM?
Yes

Take the compound O=c1[nH]c2ccc([S+]([O-])CCN3CCC(Cc4ccc(F)cc4)CC3)cc2o1 (stereo not shown) and say whether its AC50 is less than 1 µM.
No

I wonder whether `O=C(O)c1nn(Cc2ccc(Cl)cc2Cl)c2ccccc12` has AC50 below 1 µM. Can you tell?
No

Check if AC50 falls below 1 µM for CN1CCC(=C2c3ccccc3C=Cc3ccccc32)CC1 [Cyproheptadine hydrochloride] .
No

Strictly below 1 µM in AC50? CN(C/C=C/c1ccccc1)Cc1cccc2ccccc12 [Naftifine hydrochloride]
No

Quick check: AC50 of Oc1c(Cl)c(Cl)c(Cl)c(Cl)c1Cl [Sodium pentachlorophenate] under 1 µM?
No

Take the compound `COC(=O)N(OC)c1ccccc1COc1ccn(-c2ccc(Cl)cc2)n1` and say whether its AC50 is less than 1 µM.
No
